Where these numbers come from: patent US20120214798A1

EXPERIMENTAL SYSTEM: human ferroportin (Homo sapiens, UniProt Q9NP59)
Construct: expressed in transfected cells
Sequence (Q9NP59 whole entry): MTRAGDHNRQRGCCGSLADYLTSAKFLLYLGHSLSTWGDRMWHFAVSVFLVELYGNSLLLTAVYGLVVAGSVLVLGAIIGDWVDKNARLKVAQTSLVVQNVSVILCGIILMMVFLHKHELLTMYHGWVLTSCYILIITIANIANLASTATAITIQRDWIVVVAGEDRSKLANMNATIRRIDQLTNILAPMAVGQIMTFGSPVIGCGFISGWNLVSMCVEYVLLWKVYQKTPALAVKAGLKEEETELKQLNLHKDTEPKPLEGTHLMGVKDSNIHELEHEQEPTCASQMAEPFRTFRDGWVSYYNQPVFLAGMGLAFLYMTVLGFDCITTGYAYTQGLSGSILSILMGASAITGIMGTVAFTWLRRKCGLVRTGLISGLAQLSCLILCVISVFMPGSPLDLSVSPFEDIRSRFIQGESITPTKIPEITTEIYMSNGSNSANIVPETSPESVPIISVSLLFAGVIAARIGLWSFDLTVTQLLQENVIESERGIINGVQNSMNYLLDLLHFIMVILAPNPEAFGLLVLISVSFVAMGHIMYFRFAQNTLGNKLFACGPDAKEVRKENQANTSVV
PROCEDURE SUMMARY: Ferroportin internalization assay (inhibition of hepcidin-induced internalization of Fpn, MDCK-FPN-HaloTag cells)
Assay type: cell-based
EXPERIMENTAL CONTEXT: 100 nM hepcidin
Parameter: I [%] (median inhibition [%] at 10 μm substance conc.). Scope: all listed entries.

The following compounds have reported results that may help.
- COMPOUND: "O=C(C1CCCO1)N1CCN(CC(NCc2ccccn2)c2ccccc2)CC1 (stereo not drawn)"
  RESULT: "<50%"
- COMPOUND: "c1ccc(C(CN2CCC(N3CCCCC3)CC2)NCCN2CCOCC2)cc1 (stereo not drawn)"
  RESULT: "<50%"
- COMPOUND: "O=C(C1CCCO1)N1CCN(CC(NCc2ccccn2)c2ccc(F)cc2)CC1 (stereo not drawn)"
  RESULT: "<50%"
- COMPOUND: "Fc1ccc(C(CN2CCN(c3cnccn3)CC2)NCc2ccccn2)cc1 (stereo not drawn)"
  RESULT: ">50%"
- COMPOUND: "COc1ccc(CNC(CN2CCC(N3CCCCC3)CC2)c2ccccc2)cc1 (stereo not drawn)"
  RESULT: "<50%"

Here is the next item to consider.
I [%] (median inhibition [%] at 10 μm substance conc.) value, target or system human ferroportin (Homo sapiens, UniProt Q9NP59), for COCCN1CCN(C(CN2CCC(N3CCCCC3)CC2)c2ccccc2)CC1 (stereo not drawn) : >50%
